src = ChEMBL document CHEMBL3727355

- Target Desc: UniProtKB P46092
- Sequence (P46092 whole entry): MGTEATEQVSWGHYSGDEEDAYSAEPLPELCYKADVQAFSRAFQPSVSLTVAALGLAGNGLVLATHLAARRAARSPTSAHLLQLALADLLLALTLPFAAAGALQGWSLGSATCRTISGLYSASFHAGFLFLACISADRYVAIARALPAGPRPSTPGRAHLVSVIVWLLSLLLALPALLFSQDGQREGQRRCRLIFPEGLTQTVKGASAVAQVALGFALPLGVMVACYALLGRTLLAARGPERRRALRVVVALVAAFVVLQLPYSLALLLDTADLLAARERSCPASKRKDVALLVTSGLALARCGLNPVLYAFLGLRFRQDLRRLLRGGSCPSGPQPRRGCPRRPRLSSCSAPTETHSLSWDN
- Assay Text: Antagonist activity against human CCR10 expressed in human KJMGER8 cells assessed as inhibition of human recombinant CTACK-induced increase in intracellular calcium level at 100 nmol/L pre-incubated for 30 mins before human recombinant CTACK stimulation for 5 mins by FLIPR assay
- Assay type: functional, cell-based
Some compounds, each annotated with its measured inhibition.

Cpd Smiles: O=C(c1cnc2c(S(=O)(=O)Nc3ncccn3)cnn2c1Nc1cc(Cl)ccc1Cl)N1CCC(c2ccc(F)cc2)CC1
inhibition: > 100%

Data request: Look up inhibition: `CC(=O)NS(=O)(=O)c1cnn2c(Nc3cccc(Cl)c3Cl)c(C(=O)N3CCC(c4ccc(F)cc4)CC3)cnc12`
Data returned: > 100%

Data request: Input `Cc1cc(F)ccc1Nc1c(C(=O)N2CCC(c3ccccc3)CC2)cnc2c(S(=O)(=O)NC(=O)C(F)(F)F)cnn12`
Data returned: > 100%

* * *

- Target Desc: UniProt P46092
- Assay Text: Antagonist activity against human CCR10 expressed in human KJMGER8 cells assessed as inhibition of human recombinant CTACK-induced increase in intracellular calcium level at 100 nmol/L pre-incubated for 30 mins before human recombinant CTACK stimulation for 5 mins by FLIPR assay
- Assay type: functional, cell-based
Each entry below lists one item and its recorded inhibition value.

Examples with their reported inhibition follow.
Cpd Smiles: CNCC(=O)NS(=O)(=O)c1cnn2c(Nc3ccc(F)cc3C)c(C(=O)N3CCC(c4ccccc4)CC3)cnc12
Target Desc: UniProt P46092
Property Measured: inhibition
Observed: 58.8%
--
Cpd Smiles: CC(=O)NS(=O)(=O)c1cnn2c(Nc3cc(F)ccc3F)c(C(=O)N3CCC(c4ccc(F)cc4)CC3)cnc12
Target Desc: UniProt P46092
Property Measured: inhibition
Observed: > 100%
--
Cpd Smiles: CCNC(=O)NS(=O)(=O)c1cnn2c(Nc3cc(C)c(F)cc3Cl)c(C(=O)N3CCC(c4ccc(F)cc4)CC3)cnc12
Target Desc: UniProt P46092
Property Measured: inhibition
Observed: > 100%
--
Cpd Smiles: O=CNS(=O)(=O)c1cnn2c(Nc3cc(Cl)ccc3Cl)c(C(=O)N3CCC(c4ccc(F)cc4)CC3)cnc12
Target Desc: UniProt P46092
Property Measured: inhibition
Observed: > 100%
--
Cpd Smiles: CCNC(=O)NS(=O)(=O)c1cnn2c(Nc3cc(Cl)ccc3F)c(C(=O)N3CCC(c4ccc(F)cc4)CC3)cnc12
Target Desc: UniProt P46092
Property Measured: inhibition
Observed: > 100%

Next compound, inhibition to be filled in.
Data request: Fill blank: measured inhibition of the compound `CCNC(=O)NS(=O)(=O)c1cnn2c(NCc3ccccc3)c(C(=O)N3CCC(c4ccccc4)CC3)cnc12` is ____.
Data returned: 95.1%

* * *

- Target Desc: UniProt:P46092
- Assay Text: Antagonist activity against human CCR10 expressed in human KJMGER8 cells assessed as inhibition of human recombinant CTACK-induced increase in intracellular calcium level at 100 nmol/L pre-incubated for 30 mins before human recombinant CTACK stimulation for 5 mins by FLIPR assay
- Assay type: functional, cell-based
Property Measured: inhibition (%)

Cpd Smiles: CCNC(=S)NS(=O)(=O)c1cnn2c(Nc3ccc(F)cc3C)c(C(=O)N3CCC(c4ccccc4)CC3)cnc12
Target Desc: UniProt:P46092
Measurement Units: %
inhibition: 81.8

Cpd Smiles: O=C(NS(=O)(=O)c1cnn2c(Nc3ccccc3Cl)c(C(=O)N3CCC(c4ccccc4)CC3)cnc12)C1CC1
Target Desc: UniProt:P46092
Measurement Units: %
inhibition: 98.9
